# System: Plasmodium berghei
# measurementNotes: Luciferase/luciferin-expressing antifolate-resistant parasites were used to infect a culture of HepG2 cells that were pre-incubated with compounds. Infected hepatocytes emit light due to the luciferase reaction. Assay results are presented as the percent inhibition of light emission compared to control. […]
# Format: functional
# conditionDetails: sporozoite, read-out: LUCIFERASE INFECTION ASSAY - IC90
recordedMetric: IC90

{"compound": "COc1ccccc1-c1nnc(SCc2cc(=O)c(O)co2)n1C", "testedTarget": "Plasmodium berghei", "result": "> 10 µM"}
{"compound": "O=C(c1ccc(NS(=O)(=O)c2cccs2)cc1)N1CCC(c2c[nH]c3ccccc23)CC1", "testedTarget": "Plasmodium berghei", "result": "> 10 µM"}
{"compound": "CCc1nn2c(NCc3ccccn3)cc(C)nc2c1-c1ccccc1", "testedTarget": "Plasmodium berghei", "result": "> 9.61 µM"}
{"compound": "CC(CCc1ccccc1)Nc1ccc(S(N)(=O)=O)cc1[N+](=O)[O-] (configuration not stated)", "testedTarget": "Plasmodium berghei", "result": "> 10 µM"}
{"compound": "Cn1nc(-c2ccccc2)c(-c2nc3ccccc3n2C)c1-c1ccccc1", "testedTarget": "Plasmodium berghei", "result": "8.97 µM"}
{"compound": "CCN1CCN(c2nc(CC(C)C)c3c(c2C#N)CCCC3)CC1", "testedTarget": "Plasmodium berghei", "result": "> 10.1 µM"}
{"compound": "Cc1cc(C)cc(NC(=S)NC2CCCC(C)C2C)c1 (configuration not stated)", "testedTarget": "Plasmodium berghei", "result": "9.4 µM"}
{"compound": "O=C(/C=C/c1ccco1)Nc1ccc(Cl)c(Cl)c1", "testedTarget": "Plasmodium berghei", "result": "11.3 µM"}
{"compound": "c1ccc(-c2csc3nc(CN4CCOCC4)nc(NCc4cnn(-c5ccccc5)c4)c23)cc1", "testedTarget": "Plasmodium berghei", "result": "> 10 µM"}
{"compound": "COc1cc2c(cc1OC)C(c1cccs1)N(C(=O)CC1CCCC1)CC2 (configuration not stated)", "testedTarget": "Plasmodium berghei", "result": "> 10 µM"}
{"compound": "COC(=O)c1cc(N/N=C2\\C=CC(=O)c3ncccc32)cc(C(=O)OC)c1", "testedTarget": "Plasmodium berghei", "result": "3.38 µM"}
{"compound": "CC(=O)Nc1ccc(-c2cnc3ccc(Cc4ccc(F)cc4)nn23)cc1", "testedTarget": "Plasmodium berghei", "result": "1.41 µM"}
{"compound": "O=C(CSc1nn(Cc2ccccc2)/c(=N\\Cc2ccccc2)s1)NC(=O)NC1CCCCC1", "testedTarget": "Plasmodium berghei", "result": "> 10 µM"}
{"compound": "Cc1ccc(Cl)cc1N1C(=O)C=CC1=O", "testedTarget": "Plasmodium berghei", "result": "> 14.9 µM"}
{"compound": "CC(C)(C)c1n[nH]c2c(-c3nc4ccccc4s3)c(N)nn2c1=O", "testedTarget": "Plasmodium berghei", "result": "5.67 µM"}
{"compound": "Cc1onc(-c2c(Cl)cccc2Cl)c1-c1nc(-c2cc(-c3ccccc3)c(C(F)(F)F)s2)cs1", "testedTarget": "Plasmodium berghei", "result": "> 6.14 µM"}
{"compound": "CC(C)(C)c1ccc(-c2ccc(OCCN3CCOCC3)nc2)cc1", "testedTarget": "Plasmodium berghei", "result": "> 9.69 µM"}
{"compound": "COc1ccc(-c2cnc3ccc(NCc4ccc(S(N)(=O)=O)cc4)nn23)cn1", "testedTarget": "Plasmodium berghei", "result": "> 8.04 µM"}
{"compound": "Cn1c(NCc2ccccc2)nc2cnc(Nc3ccc(OC(F)(F)F)cc3)cc21", "testedTarget": "Plasmodium berghei", "result": "3.61 µM"}
{"compound": "Cn1cc(Br)cc1C(=O)Nc1ccc2c(c1)OCCO2", "testedTarget": "Plasmodium berghei", "result": "> 10 µM"}
{"compound": "O=[N+]([O-])c1ccc(Nc2cccc(OC3CCCC3)c2)nc1", "testedTarget": "Plasmodium berghei", "result": "> 10 µM"}
{"compound": "COc1cc(OC)cc(C(=O)N(Cc2ccccc2)c2nc(-c3ccc(Cl)cc3Cl)cs2)c1", "testedTarget": "Plasmodium berghei", "result": "> 10 µM"}
